- Assay System: Type-2 angiotensin II receptor (Rattus norvegicus, UniProt P35351)
- Sequence (P35351 whole entry): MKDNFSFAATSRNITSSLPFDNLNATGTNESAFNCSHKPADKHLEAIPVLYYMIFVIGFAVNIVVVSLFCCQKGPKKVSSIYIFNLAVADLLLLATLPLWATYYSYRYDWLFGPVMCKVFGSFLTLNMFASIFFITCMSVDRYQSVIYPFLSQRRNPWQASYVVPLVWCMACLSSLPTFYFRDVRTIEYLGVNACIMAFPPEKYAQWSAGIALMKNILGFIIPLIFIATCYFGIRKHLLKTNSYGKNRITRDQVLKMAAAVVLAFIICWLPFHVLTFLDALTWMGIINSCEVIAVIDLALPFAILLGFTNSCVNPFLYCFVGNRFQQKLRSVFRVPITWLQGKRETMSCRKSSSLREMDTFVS
pIC50: −log10 of the molar value.
Reported Metric: pIC50

CCCCc1nn(-c2ccccc2C(F)(F)F)c(=O)n1Cc1ccc(-c2ccccc2S(=O)(=O)NC(=O)NC(C)C)cc1	6.52
CCCCc1nn(CC(C)(C)C)c(=O)n1Cc1ccc(-c2ccccc2S(=O)(=O)NC(=O)c2ccccc2)cc1	5.64
CCCCOC(=O)NS(=O)(=O)c1ccccc1-c1ccc(Cn2c(CCCC)nn(-c3ccccc3C(F)(F)F)c2=O)cc1	6.72
CCCCc1nn(-c2ccccc2C(F)(F)F)c(=O)n1Cc1ccc(-c2ccccc2S(=O)(=O)Nc2nc3ccccc3o2)cc1	6.15

====

pIC50 by entry:
- Assay System: Type-2 angiotensin II receptor (Rattus norvegicus, UniProt P35351)
- Sequence (P35351 whole entry): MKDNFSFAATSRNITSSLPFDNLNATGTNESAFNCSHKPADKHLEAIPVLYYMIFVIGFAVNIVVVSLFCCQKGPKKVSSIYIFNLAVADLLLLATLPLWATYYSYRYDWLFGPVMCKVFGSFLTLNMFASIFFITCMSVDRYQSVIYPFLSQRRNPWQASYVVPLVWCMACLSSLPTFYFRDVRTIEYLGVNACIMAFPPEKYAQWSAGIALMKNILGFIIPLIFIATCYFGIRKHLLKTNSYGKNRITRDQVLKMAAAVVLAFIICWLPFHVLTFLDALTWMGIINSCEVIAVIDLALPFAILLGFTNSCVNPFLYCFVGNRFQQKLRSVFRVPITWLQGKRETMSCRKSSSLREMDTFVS
pIC50: −log10 of the molar value.
Reported Metric: pIC50

CCCCc1nn(-c2ccccc2C(F)(F)F)c(=O)n1Cc1ccc(-c2ccccc2S(=O)(=O)NC(=O)c2cc(C)oc2C)cc1	6.51
CCCCc1nn(-c2ccccc2C(F)(F)F)c(=O)n1Cc1ccc(-c2ccccc2S(=O)(=O)NS(=O)(=O)C(C)C)cc1	5.44
CCCCc1nn(-c2ccccc2C(F)(F)F)c(=O)n1Cc1ccc(-c2ccccc2S(=O)(=O)NC(=O)c2ccccc2Cc2ccccc2)cc1	6.72
CCCCc1nn(-c2ccccc2C(F)(F)F)c(=O)n1Cc1ccc(-c2ccccc2S(=O)(=O)NC(=O)CCC2CCCC2)cc1	6.14
CCCCc1nn(-c2ccccc2C(F)(F)F)c(=O)n1Cc1ccc(-c2ccccc2S(=O)(=O)NC(=O)C2CCOC2)cc1 (stereo not given)	6.55
CCCCc1nn(-c2ccccc2C(F)(F)F)c(=O)n1Cc1ccc(-c2ccccc2S(=O)(=O)NC(=O)c2ccccc2C(F)(F)F)cc1	6.66
CCCCc1nn(-c2ccccc2C(F)(F)F)c(=O)n1Cc1ccc(-c2ccccc2S(=O)(=O)NC(=O)c2oc3ccccc3c2C)cc1	6.89
CCCCc1nn(-c2ccccc2C(F)(F)F)c(=O)n1Cc1ccc(-c2ccccc2S(=O)(=O)NC(=O)CCCCCN)cc1	7.00
CCCCc1nn(-c2ccccc2C(F)(F)F)c(=O)n1Cc1ccc(-c2ccccc2S(=O)(=O)NC(=O)C2CC2C)cc1 (stereo not given)	6.92
CCCCc1nn(-c2ccccc2C(F)(F)F)c(=O)n1Cc1ccc(-c2ccccc2S(=O)(=O)NC(=O)c2cc(Cl)sc2Cl)cc1	7.06
CCCCc1nn(-c2ccccc2C(F)(F)F)c(=O)n1Cc1ccc(-c2ccccc2S(=O)(=O)NC(=O)c2ccoc2C)cc1	6.96
CCCCc1nn(-c2ccccc2C(F)(F)F)c(=O)n1Cc1ccc(-c2ccccc2S(=O)(=O)NC(=O)c2ccc(C)o2)cc1	6.82
CCCCc1nn(-c2ccccc2C(F)(F)F)c(=O)n1Cc1ccc(-c2ccccc2S(=O)(=O)NC(=O)c2cccc(C(F)(F)F)c2)cc1	6.24
CCCCc1nn(-c2ccccc2C(F)(F)F)c(=O)n1Cc1ccc(-c2ccccc2S(=O)(=O)NC(=O)C(c2ccccc2)c2ccccc2)cc1	6.49

====

- Assay System: Type-2 angiotensin II receptor (Rattus norvegicus, UniProt P35351)
- Sequence (P35351 whole entry): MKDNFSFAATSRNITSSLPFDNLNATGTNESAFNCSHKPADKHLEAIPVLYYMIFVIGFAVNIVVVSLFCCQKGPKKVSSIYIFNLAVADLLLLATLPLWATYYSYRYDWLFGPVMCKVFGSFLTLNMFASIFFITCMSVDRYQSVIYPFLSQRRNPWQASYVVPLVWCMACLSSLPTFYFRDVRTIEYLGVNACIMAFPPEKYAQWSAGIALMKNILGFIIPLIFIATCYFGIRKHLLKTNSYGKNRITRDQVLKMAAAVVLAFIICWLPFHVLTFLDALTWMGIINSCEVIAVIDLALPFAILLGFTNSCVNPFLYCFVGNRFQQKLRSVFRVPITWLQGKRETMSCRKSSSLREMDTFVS
pIC50: −log10 of the molar value.
pIC50 by entry:
Reported Metric: pIC50

CCCCc1nn(-c2ccccc2C(F)(F)F)c(=O)n1Cc1ccc(-c2ccccc2S(=O)(=O)NC(=O)C2CC2(C)C)cc1 (stereo not drawn)	6.66
CCCCc1nn(-c2ccccc2C(F)(F)F)c(=O)n1Cc1ccc(-c2ccccc2S(=O)(=O)NC(=O)c2ccccc2C)cc1	6.96
CCCCc1nn(-c2ccccc2C(F)(F)F)c(=O)n1Cc1ccc(-c2ccccc2S(=O)(=O)NC(=O)C(F)(F)F)cc1	6.40
CCCCc1nn(-c2ccccc2Cl)c(=O)n1Cc1ccc(-c2ccccc2S(=O)(=O)NC(=O)c2ccccc2)cc1	6.23
CCCCc1nn(-c2ccccc2C(F)(F)F)c(=O)n1Cc1ccc(-c2ccccc2S(=O)(=O)NC(=O)OCC)cc1	7.12
CCCCc1nn(-c2ccccc2Cl)c(=O)n1Cc1ccc(-c2ccccc2S(=O)(=O)NC(=O)C(F)(F)F)cc1	6.35
CCCCc1nn(-c2ccccc2C(F)(F)F)c(=O)n1Cc1ccc(-c2ccccc2S(=O)(=O)NC(=O)c2cc(Br)sc2Br)cc1	7.08

====

IC50 by entry:
- Assay System: Type-1 angiotensin II receptor (Oryctolagus cuniculus)
- Sequence (P34976 whole entry): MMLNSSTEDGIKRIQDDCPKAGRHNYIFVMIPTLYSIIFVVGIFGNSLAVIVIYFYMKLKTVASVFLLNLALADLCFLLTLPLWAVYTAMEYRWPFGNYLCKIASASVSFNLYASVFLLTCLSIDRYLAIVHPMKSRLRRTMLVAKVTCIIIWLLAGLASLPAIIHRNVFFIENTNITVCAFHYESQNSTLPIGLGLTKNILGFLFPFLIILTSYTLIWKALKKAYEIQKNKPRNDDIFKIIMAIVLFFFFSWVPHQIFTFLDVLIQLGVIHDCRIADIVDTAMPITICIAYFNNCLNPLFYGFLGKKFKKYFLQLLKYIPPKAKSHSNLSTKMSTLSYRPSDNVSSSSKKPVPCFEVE
Reported Metric: IC50 (nM)

CCCCc1nn(-c2ccccc2C(F)(F)F)c(=O)n1Cc1ccc(-c2ccccc2S(=O)(=O)NC(=O)CCCCCN)cc1	1.3
CCCCc1nn(-c2ccccc2C(F)(F)F)c(=O)n1Cc1ccc(-c2ccccc2S(=O)(=O)NC(=O)c2cc3ccccc3o2)cc1.CCOCC	0.17
CCCCc1nn(-c2ccccc2C(F)(F)F)c(=O)n1Cc1ccc(-c2ccccc2S(=O)(=O)NC(=O)c2ccccc2C)cc1	0.56
CCCCc1nn(CC(C)(C)C)c(=O)n1Cc1ccc(-c2ccccc2S(=O)(=O)NC(=O)c2ccccc2)cc1	3.3
CCCCc1nn(-c2ccccc2C(F)(F)F)c(=O)n1Cc1ccc(-c2ccccc2S(=O)(=O)NC(=O)c2ccoc2C)cc1	3
CCCCc1nn(-c2ccccc2C(F)(F)F)c(=O)n1Cc1ccc(-c2ccccc2S(=O)(=O)NC(=O)c2cc3ccccc3s2)cc1	0.31
CCCCc1nn(-c2ccccc2C(F)(F)F)c(=O)n1Cc1ccc(-c2ccccc2S(=O)(=O)NC(=O)c2c(C)cccc2C)cc1	5.9
CCCCc1nn(-c2ccccc2C(F)(F)F)c(=O)n1Cc1ccc(-c2ccccc2NS(=O)(=O)C(F)(F)F)cc1	1.8
CCCCc1nn(-c2ccccc2C(F)(F)F)c(=O)n1Cc1ccc(-c2ccccc2S(=O)(=O)NC(=O)c2cc(Cl)sc2Cl)cc1	2.6
CCCCc1nn(-c2ccccc2C(F)(F)F)c(=O)n1Cc1ccc(-c2ccccc2S(=O)(=O)NC(=O)c2oc(C)cc2C)cc1	0.22
CC1CC1Cc1nn(-c2ccccc2C(F)(F)F)c(=O)n1Cc1ccc(-c2ccccc2S(=O)(=O)NC(=O)c2ccccc2)cc1 (stereo unspecified)	5.8
CCCCc1nn(-c2ccccc2C(F)(F)F)c(=O)n1Cc1ccc(-c2ccccc2S(=O)(=O)NC(=O)Cc2ccccc2)cc1	1.6
CCCCc1nn(-c2ccccc2C(F)(F)F)c(=O)n1Cc1ccc(-c2ccccc2S(=O)(=O)NC(=O)C(C)(C)C)cc1	1.3
CCCCc1nn(-c2ccccc2C(F)(F)F)c(=O)n1Cc1ccc(-c2ccccc2S(=O)(=O)NC(=O)C2CCCC2)cc1	0.32
CCCCc1nn(-c2ccccc2C(F)(F)F)c(=O)n1Cc1ccc(-c2ccccc2S(=O)(=O)NC(=O)c2ccc(C#N)cc2)cc1	0.76
CCCCc1nn(-c2ccccc2C(F)(F)F)c(=O)n1Cc1ccc(-c2ccccc2S(=O)(=O)NC(=O)c2ccc(Br)o2)cc1	0.4
